Target: T1, human PAR-2 (human, UniProt P55085 26-397)
T1 sequence: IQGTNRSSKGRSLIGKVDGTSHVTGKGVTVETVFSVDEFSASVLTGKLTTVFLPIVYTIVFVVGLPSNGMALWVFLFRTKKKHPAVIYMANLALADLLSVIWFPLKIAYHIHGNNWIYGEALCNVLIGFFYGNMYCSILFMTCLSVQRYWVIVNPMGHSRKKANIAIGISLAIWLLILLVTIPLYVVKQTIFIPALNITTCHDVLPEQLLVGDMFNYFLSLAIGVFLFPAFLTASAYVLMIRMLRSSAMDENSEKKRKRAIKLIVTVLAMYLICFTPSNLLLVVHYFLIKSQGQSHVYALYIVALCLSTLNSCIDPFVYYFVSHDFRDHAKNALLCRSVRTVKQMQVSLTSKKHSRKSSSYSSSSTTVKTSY
Test: cell-based or functional assay
Readout: PAR-2 β-arrestin cell based assay IC50, 1 µM SLIGKV (nM)
Form entry: value (nM) — number only.

Consider the following illustrative entries.
[[record]]
binder = "P24E9 (antibody, human IgG4 S228P, kappa, V domains shown) VH: QVQLVQSGAEVKKPGSSVKVSCKASGFSLSSYGVIWVRQAPGQGLEWMGVIWGNGNTYYNQKFQGRVTITADESTSTAYMELSSLRSEDTAVYYCARWRGYKDYPFDYWGQGTLVTVSS VL: EIVLTQSPATLSLSPGERATLSCKASQNIYKYLDWYQQKPGQAPRLLIYNTNSLHTGIPARFSGSGSGRDFTLTISSLEPEDFAVYYCLQHNSGWTFGGGTKVEIKR"
unit_symbol = "nM"
observed = 11.3

[[record]]
binder = "P24E232 (antibody, human IgG4 S228P, kappa, V domains shown) VH: QVQLVQSGAEVKKPGSSVKVSCKASGFSLNSYGVIWVRQAPGQGLEWMGVIWGNGNTYYGQKFQGRVTITADESTSTAYMELSSLRSEDTAVYYCARWRGYKDYPFDYWGQGTLVTVSS VL: EIVLTQSPATLSLSPGERATLSCKASQNIYKYLDWYQQKPGQAPRLLIYNTNSLHTGIPARFSGSGSGRDFTLTISSLEPEDFAVYYCLQHNSGWTFGGGTKVEIKR"
unit_symbol = "nM"
observed = 1.99

[[record]]
binder = "P24E219 (antibody, human IgG4 S228P, kappa, V domains shown) VH: QVQLVQSGAEVKKPGSSVKVSCKASGFSLNSYGGIWVRQAPGQGLEWMGVIWGNGNTYYNQKFQGRVTITADESTSTAYMELSSLRSEDTAVYYCARWRGYKDYPFDYWGQGTLVTVSS VL: EIVLTQSPATLSLSPGERATLSCKASQNIYKYLDWYQQKPGQAPRLLIYNTNSLHTGIPARFSGSGSGRDFTLTISSLEPEDFAVYYCLQHNSGWTFGGGTKVEIKR"
unit_symbol = "nM"
observed = 1.33


I would be grateful if you could share the reported PAR-2 β-arrestin cell based assay IC50, 1 µM SLIGKV for P24E216 (antibody, human IgG4 S228P, kappa, V domains shown) VH: QVQLVQSGAEVKKPGSSVKVSCKASGFSLNYYGVIWVRQAPGQGLEWMGVIWGNGNTYYNQKFQGRVTITADESTSTAYMELSSLRSEDTAVYYCARWRGYKDYPFDYWGQGTLVTVSS VL: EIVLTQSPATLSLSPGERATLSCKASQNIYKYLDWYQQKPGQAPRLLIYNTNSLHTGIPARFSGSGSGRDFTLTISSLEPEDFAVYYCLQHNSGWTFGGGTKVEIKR .
1.95

I would be grateful if you could share the reported PAR-2 β-arrestin cell based assay IC50, 1 µM SLIGKV for P24E22 (antibody, human IgG4 S228P, kappa, V domains shown) VH: QVQLVQSGAEVKKPGSSVKVSCKASGFSLNSYGVIWVRQAPGQGLEWMGVIWGNGNTYYAQKFQGRVTITADESTSTAYMELSSLRSEDTAVYYCARWRGYKDYPFDYWGQGTLVTVSS VL: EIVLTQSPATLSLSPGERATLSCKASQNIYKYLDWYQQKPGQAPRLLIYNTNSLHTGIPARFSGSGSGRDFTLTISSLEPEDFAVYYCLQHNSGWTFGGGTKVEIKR .
2.5
